These entries and their values trace back to patent US6608061B2.

Target: human RNR (purified R1 and R2 subunits) (Homo sapiens, UniProt P23921+P31350)
Sequence (P23921 1-792): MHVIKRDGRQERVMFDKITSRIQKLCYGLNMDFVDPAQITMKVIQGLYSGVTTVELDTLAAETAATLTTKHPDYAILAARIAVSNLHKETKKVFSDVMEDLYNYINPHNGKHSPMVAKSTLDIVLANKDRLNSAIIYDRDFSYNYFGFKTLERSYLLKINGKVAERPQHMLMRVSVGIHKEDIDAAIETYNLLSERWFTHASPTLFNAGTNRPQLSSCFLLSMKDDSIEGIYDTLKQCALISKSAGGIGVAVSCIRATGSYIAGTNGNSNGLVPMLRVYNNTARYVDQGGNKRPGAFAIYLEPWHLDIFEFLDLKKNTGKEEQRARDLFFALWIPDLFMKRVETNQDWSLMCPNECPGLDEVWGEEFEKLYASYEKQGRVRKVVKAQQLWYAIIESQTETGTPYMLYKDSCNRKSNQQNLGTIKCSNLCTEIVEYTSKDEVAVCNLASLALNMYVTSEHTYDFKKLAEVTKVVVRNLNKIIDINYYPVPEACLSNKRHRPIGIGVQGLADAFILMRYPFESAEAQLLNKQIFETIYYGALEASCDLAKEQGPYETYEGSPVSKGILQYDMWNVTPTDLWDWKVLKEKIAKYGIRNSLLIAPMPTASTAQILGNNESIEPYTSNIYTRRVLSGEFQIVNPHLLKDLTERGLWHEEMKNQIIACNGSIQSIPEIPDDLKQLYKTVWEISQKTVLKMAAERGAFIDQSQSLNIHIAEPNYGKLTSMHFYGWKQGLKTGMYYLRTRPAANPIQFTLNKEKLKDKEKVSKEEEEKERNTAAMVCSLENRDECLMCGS
Sequence (P31350 1-389): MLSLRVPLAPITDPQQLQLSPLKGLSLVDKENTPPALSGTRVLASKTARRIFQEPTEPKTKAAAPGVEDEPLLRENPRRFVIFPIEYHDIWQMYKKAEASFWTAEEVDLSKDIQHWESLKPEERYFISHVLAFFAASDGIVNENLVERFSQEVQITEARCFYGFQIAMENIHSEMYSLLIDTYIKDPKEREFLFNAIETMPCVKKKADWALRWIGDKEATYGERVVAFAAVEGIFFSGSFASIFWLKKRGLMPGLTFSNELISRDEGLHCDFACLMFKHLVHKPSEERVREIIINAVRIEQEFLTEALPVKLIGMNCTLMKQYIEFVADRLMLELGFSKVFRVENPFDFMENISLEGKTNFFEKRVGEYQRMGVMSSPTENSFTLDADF
Test: In vitro measurement of human RNR inhibitory activity (conversion of CDP to dCDP, HPLC)
Settings: 100 μM CDP, 37° C., 30 minutes, read-out: RNR Inhibition (IC50)
pIC50: −log10 of the molar value.
TEST_READOUT: pIC50

Previously resolved entries follow.
>  <MOLECULE>
O=C(CN(CCSc1ccc(O)cc1)CCSc1ccc(O)cc1)Nc1ncccn1

>  <TARGET_OF_ASSAY>
human RNR (purified R1 and R2 subunits) (Homo sapiens, UniProt P23921+P31350)

>  <OBSERVED>
5.49

$$$$
>  <MOLECULE>
CCN(CC)C(=O)CCN(CCSc1ccc(O)cc1)CCSc1ccc(O)cc1

>  <TARGET_OF_ASSAY>
human RNR (purified R1 and R2 subunits) (Homo sapiens, UniProt P23921+P31350)

>  <OBSERVED>
6.13

$$$$

I: O=C1N(CS(=O)(=O)CCSc2ccc(O)cc2)CCCN1CS(=O)(=O)CCSc1ccc(O)cc1
II: Oc1ccc(SCCN(CCSc2ccc(O)cc2)Cc2cccnc2)cc1
III: Oc1ccc(SCCN(O)CCSc2ccc(O)cc2)cc1
IV: Oc1ccc(SCCOCCOCCOCCSc2ccc(O)cc2)cc1
V: O=C(N(CCSc1ccc(O)cc1)CCSc1ccc(O)cc1)N1CCCc2ccccc21
// smallest pIC50 at index 0, largest at the end State the ranking by listing the labels in the requested order.
IV, I, II, III, V
